This section presents compounds with their documented TGI values.
system: SK-MEL-2 melanoma; assay: NCI tumour cell line growth inhibition, 48 h
Only the number, expressed in µM, is required.

Known TGI results, listed for orientation:
INSERT INTO measurements (compound, reported_result) VALUES
  ('COC1OC2=CCC3C(=O)NC(=O)C3C2[C@H](OCc2ccccc2)C1OCc1ccccc1 (stereo partly drawn)', 16.4),
  ('CCOC(=O)/C=C(\C(=O)OCC)n1ccc(=O)[nH]c1=O', 50),
  ('Cn1c(O)c(C=Nc2ccccc2Cl)c(=O)n(C)c1=O', 41.1);

From here, focus on the item given below.
For record CCc1cccc(C)c1NC(=O)CC1C(=O)Nc2ccccc2S1(=O)=O (stereo not drawn) the listed TGI is 53.5

---

Collected TGI values appear next to each entry.
system: M14 melanoma; test: NCI tumour cell line growth inhibition, 48 h

INSERT INTO assay_data (molecule, reported_result) VALUES
  ('CC(=O)[O-].O=C([CH-]C(=O)c1ccccc1)c1ccccc1.O=C([CH-]C(=O)c1ccccc1)c1ccccc1.[Sm+3]', '17.5 µM');

Now for the molecule whose TGI we want.
TGI reading for O=C(CSc1nc2ccccc2c(=O)n1-c1ccccc1)N=Nc1c(O)[nH]c2ccc(F)cc12 : 4.57 µM

---

As shown below, each of these molecules has a reported GI50 value.
tested on: NCI-H522 lung; test: NCI tumour cell line growth inhibition, 48 h

The examples below pair each entry with its known result.
INSERT INTO measurements (molecule, reported_result) VALUES
  ('CCC[CH2][Sn]1([CH2]CCC)[O]CC(C)[O]1 (stereo unspecified)', '306 nM'),
  ('O=C1OCC2=C1C(c1ccccc1)c1cc3c(cc1N2CCO)OCCO3 (stereo unspecified)', '59.3 nM'),
  ('COc1cc(NC(=O)C2=C(N3CCOCC3)/C(=C/c3ccc(Cl)cc3)CC2)cc(OC)c1OC', '17200 nM');

Value of GI50 reported for the molecule Oc1ccc(N=Nc2ccccn2)c(O)c1 is 2680 nM

COc1ccc2ccc3oc([N+](=O)[O-])cc3c2c1 has a reported GI50 of 169 nM

Looking up CCN(CC)c1ccc(/C=C/C=C2\NC(=O)NC2=O)cc1 , I found its GI50 recorded as 920 nM

---

Each record here notes measured TGI.
test system: SNB-75 CNS; test: NCI tumour cell line growth inhibition, 48 h

Worked set:
INSERT INTO assay_data (molecule, reported_result) VALUES
  ('CN(C)CC/C(=N\Nc1ccc(Cl)cc1Cl)c1ccccc1', '20.9 µM'),
  ('COC(=O)C(NC(=O)c1ccccc1)C(c1ccc(Cl)cc1)P(=O)(OC)OC (stereo unspecified)', '> 100 µM'),
  ('Cc1cccc2c(O)cc(=O)oc12', '> 100 µM'),
  ('O=c1[nH]c(=S)c2cc3c(=S)[nH]c(=O)n(CCO)c3nc2n1CCO', '> 100 µM'),
  ('CC(=O)/C(=C/N1CCNC1=S)C(=O)Nc1ccccc1C', '> 100 µM');

Entry under test: CCCCCCCCCCCCCCCC1=NC(C)(C)CN1C(C)C . Its TGI was 2.94 µM

Please fill in: TGI reported for C=CCC(C(=O)Nc1cccc2[nH]cnc12)C(=O)OCC (stereo unspecified) = > 100 µM

// sample C=C1CN(C2=NCCO2)C1 , its TGI was > 100 µM

// field: TGI; key: CCN(c1cc(C#CCN2CCOCC2)cc(C(=O)NCc2c(C)cc(C)[nH]c2=O)c1C)C1CCC(N(C)CCOC)CC1 (stereo unspecified) ; value = > 100 µM

Recorded result, Cc1ccc(CCC(=O)C(=O)O)s1 , TGI: > 100 µM

Quick note, TGI for O=C(c1ccccc1)c1c(C(F)(F)F)n([O-])c2ccc(C(F)(F)F)cc2[n+]1=O landed at 1.13 µM
